# Study target: endogenous human BRS-3 in NCI-N417 cells (Homo sapiens, UniProt P32247)
# Construct: Agonist Pharmacology at the Endogenous Human BRS-3 in NCI-N417 Cells; endogenous in cells; host or cells: NCI-N417 cells
# Sequence (P32247 whole entry): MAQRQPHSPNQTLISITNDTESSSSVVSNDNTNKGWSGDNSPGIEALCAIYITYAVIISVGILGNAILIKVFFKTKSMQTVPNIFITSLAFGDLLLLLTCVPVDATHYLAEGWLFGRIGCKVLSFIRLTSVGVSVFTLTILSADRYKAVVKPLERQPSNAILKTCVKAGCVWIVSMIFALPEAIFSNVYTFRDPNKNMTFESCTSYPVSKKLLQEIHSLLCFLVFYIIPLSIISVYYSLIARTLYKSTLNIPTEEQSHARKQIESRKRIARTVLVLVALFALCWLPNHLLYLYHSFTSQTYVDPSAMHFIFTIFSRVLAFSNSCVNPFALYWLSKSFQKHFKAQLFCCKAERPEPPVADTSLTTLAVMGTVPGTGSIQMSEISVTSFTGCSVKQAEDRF
# Experiment: Agonist pharmacology, FLIPR intracellular calcium (Fluo-3AM) in NCI-N417 cells
# Assay type: cell-based
Non-standard residues stand in square brackets, D forms with d. Residues, ends and D or L forms follow the SMILES beside them. *: point of attachment. Nle = CCCC[C@H](N)C(=O)O; βAla = NCCC(=O)O; NHPr = CCCN*
Readout name: EC50 (nM)
Numeric only. Scale: nM

So what's the measured EC50 for this one? CCCC[C@H](NC(=O)[C@H](Cc1ccccc1)NC(=O)[C@H](Cc1c[nH]cn1)NC(=O)CNC(=O)[C@@H](NC(=O)[C@H](C)NC(=O)[C@H](Cc1c[nH]c2ccccc12)NC(=O)[C@H](CCC(N)=O)NC(=O)[C@H](N)Cc1ccccc1)C(C)C)C(N)=O [[D-Phe^1, Nle^9]litorin]
1100

Now consider CCCNC(=O)[C@H](Cc1ccccc1)NC(=O)[C@H](Cc1c[nH]cn1)NC(=O)CNC(=O)[C@@H](NC(=O)[C@H](C)NC(=O)[C@H](Cc1c[nH]c2ccccc12)NC(=O)[C@H](CCC(N)=O)NC(=O)[C@H](N)Cc1ccccc1)C(C)C [[D-Phe^6, Phe^13]BN(6-13) propylamide] (H-[dF]QWAVGHF-NHPr; N-terminus assumed) and answer again.
148

Now consider CCCC[C@H](NC(=O)[C@H](Cc1ccccc1)NC(=O)[C@H](Cc1c[nH]cn1)NC(=O)CCNC(=O)[C@@H](NC(=O)[C@H](C)NC(=O)[C@H](Cc1c[nH]c2ccccc12)NC(=O)[C@H](CCC(N)=O)NC(=O)[C@H](N)Cc1ccccc1)C(C)C)C(N)=O (H-[dF]QWAV[βAla]HF[Nle]-NH2; N-terminus and C-terminus assumed) and answer again.
13.2

Let's switch to this compound now.
So what's the measured EC50 for this one? CCCNC(=O)[C@H](CC(C)C)NC(=O)[C@H](Cc1c[nH]cn1)NC(=O)CNC(=O)[C@@H](NC(=O)[C@H](C)NC(=O)[C@H](Cc1c[nH]c2ccccc12)NC(=O)[C@H](CCC(N)=O)NC(=O)[C@H](N)Cc1ccccc1)C(C)C [[D-Phe^6]BN(6-13) propylaniide]
1380
